Target: human GPR84 receptor (Homo sapiens, UniProt Q9NQS5)
Construct: host or cells: HEK293, transient transfection
Sequence (Q9NQS5 whole entry): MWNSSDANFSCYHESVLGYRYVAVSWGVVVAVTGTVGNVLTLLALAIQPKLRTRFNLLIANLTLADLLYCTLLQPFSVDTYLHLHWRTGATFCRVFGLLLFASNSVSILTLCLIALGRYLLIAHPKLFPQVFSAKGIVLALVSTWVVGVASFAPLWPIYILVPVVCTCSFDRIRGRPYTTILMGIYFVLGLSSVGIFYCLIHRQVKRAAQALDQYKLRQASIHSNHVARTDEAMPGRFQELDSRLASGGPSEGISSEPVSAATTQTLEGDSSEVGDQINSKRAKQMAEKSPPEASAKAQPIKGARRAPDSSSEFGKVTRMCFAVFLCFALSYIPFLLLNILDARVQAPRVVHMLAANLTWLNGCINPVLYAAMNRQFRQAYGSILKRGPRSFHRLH
Assay: Gαi biosensor BRET assay in HEK293 cells (antagonism of ZQ-16)
Type: cell-based
Details: HEK293, single concentration 10 μM (designated F)
Recorded Metric: inhibition at 10 µM

Please review the entries below; each comes with its answer.
| Compound | inhibition at 10 µM |
| --- | --- |
| Cc1cc(N2CC3(CCCN3c3ccccn3)C2)ccc1-c1cn(CC2OCC(C)(C)CO2)nn1 [Compound I-689] | > 75% |
| CC(C)c1cc(C#CC2CC2)ccc1-c1cn(CC2CCOCC2)nn1 [Compound I-212] | ≤ 25% |
| COC(=O)NCC#Cc1ccc(-c2cn(CC3CCCCO3)nn2)c(C)c1 (stereo not shown) [Compound I-607] | 25 to 50% |
| Cc1cc(C#CC2CC2)ccc1-c1cn(CC2CC(C)(C)CO2)nn1 (stereo not shown) [Compound I-226] | > 75% |
| CN(C)c1cc(C#CC2CC2)cnc1-c1cn(CC2CCCCO2)nn1 (stereo not shown) [Compound I-518] | > 75% |
| Cc1cc(N2CC(C)(C)C2)ccc1-c1cn(CC2OCC(F)(F)CO2)nn1 [Compound I-687] | 50 to 75% |
| Cc1cc(N2CCN(Cc3ccccc3)CC2)ccc1-c1cn(CC2CCCCO2)nn1 (stereo not shown) [Compound I-140] | 25 to 50% |
| CS(=O)(=O)c1cc(C#CC2CC2)ccc1-c1cn(CC2CCCCO2)nn1 (stereo not shown) [Compound I-219] | ≤ 25% |

Query compound follows.
Query string: // lookup inhibition at 10 µM | system=human GPR84 receptor (Homo sapiens, UniProt Q9NQS5) | key= Cc1cc(N2CC(C)(CO)C2)ccc1-c1cn(CC2OCC(C)(C)O2)nn1 (stereo not shown) [Compound I-626]
Result string: 25 to 50%

From: patent US12617777B2
